target: HRP (Armoracia rusticana, UniProt P00433); assay: Fluorescence signal/background measurements in the presence of HRP; format: biochemical, horseradish; conditions: pH 5 acidic formulation, HRP 13.8 fmol, t=15 min vs t=0
Sequence (P00433 31-338): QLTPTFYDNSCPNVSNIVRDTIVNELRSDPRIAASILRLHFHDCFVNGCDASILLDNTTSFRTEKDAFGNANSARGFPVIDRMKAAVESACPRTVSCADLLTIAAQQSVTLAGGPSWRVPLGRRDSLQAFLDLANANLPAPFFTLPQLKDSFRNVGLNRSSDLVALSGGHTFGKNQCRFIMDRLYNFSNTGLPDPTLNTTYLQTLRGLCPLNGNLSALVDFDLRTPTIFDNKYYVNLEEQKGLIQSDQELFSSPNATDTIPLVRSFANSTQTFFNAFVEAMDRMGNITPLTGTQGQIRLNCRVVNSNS
metric name: Fluorescent intensity in the presence of HRP (as S/B)

| structure | value measured |
| --- | --- |
| COc1ccc2c(c1)N(c1ccccc1)c1ccccc1C2 | 3.6 |
| Fc1ccc(N2c3ccccc3Cc3ccccc32)cc1 | 3.9 |
| COc1ccc(C2c3ccccc3N(C)c3ccccc32)cc1 | 1.4 |
